// provenance: paper PMC10786891

I'd appreciate it if you could supply Kd values for the items below.
Target: T1, EsCas13d, nuclease-dead (Eubacterium siraeum, UniProt B0MS50, R295A;H300A;R849A;H854A)
T1 sequence: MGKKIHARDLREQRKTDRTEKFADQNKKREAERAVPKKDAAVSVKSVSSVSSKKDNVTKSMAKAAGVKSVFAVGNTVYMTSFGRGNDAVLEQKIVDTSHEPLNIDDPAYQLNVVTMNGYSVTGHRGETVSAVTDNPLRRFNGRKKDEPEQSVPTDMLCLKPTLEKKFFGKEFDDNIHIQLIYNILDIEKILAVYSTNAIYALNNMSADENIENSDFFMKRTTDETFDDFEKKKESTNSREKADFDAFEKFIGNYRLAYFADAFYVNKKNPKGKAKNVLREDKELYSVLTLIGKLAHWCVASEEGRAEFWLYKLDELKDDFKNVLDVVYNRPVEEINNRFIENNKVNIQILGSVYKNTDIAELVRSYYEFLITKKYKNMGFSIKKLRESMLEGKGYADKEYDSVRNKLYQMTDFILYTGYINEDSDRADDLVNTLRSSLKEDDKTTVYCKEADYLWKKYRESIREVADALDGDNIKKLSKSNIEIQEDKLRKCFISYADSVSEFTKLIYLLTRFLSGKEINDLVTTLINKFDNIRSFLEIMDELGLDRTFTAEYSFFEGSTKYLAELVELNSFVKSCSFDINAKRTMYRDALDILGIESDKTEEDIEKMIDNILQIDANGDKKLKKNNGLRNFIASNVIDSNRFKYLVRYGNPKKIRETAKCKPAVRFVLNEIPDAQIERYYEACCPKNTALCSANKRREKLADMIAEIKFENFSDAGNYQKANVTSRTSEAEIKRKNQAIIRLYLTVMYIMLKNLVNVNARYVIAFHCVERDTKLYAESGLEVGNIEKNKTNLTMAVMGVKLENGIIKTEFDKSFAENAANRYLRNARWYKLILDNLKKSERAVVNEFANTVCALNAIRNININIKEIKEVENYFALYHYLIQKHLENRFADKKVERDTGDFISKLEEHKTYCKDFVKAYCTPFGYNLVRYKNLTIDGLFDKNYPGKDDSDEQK
Test: crRNA (strand 1, pre-loaded); Mg2+; 40 mM Tris-HCl pH 7.5, 150 mM NaCl, 6 mM MgCl2, 1 mM DTT, 0.1% Tween-20, 0.2 mg/ml BSA; 25 C; 10 min per concentration, then washed
Settings: tags: His6-TwinStrep-SUMO cleaved; N-terminal SNAP kept (SNAP-Surface 488); label: 3' end held by stalled T7 RNA polymerase
Answers are plain numbers, in nM.

>  <Binder>
target 1 insC 3' of 19,insU 3' of 1 (mixed) RNA 1: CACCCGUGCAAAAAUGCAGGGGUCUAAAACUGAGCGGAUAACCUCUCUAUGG RNA 2: GGGAAUGGAUCCACAUCUACGAAUUCGUACCAUCAGAGAGGUUAUCCGCUCAUCCGAGAUCGGAAGAGCACACGU

>  <Unit>
nM

>  <Kd>
39

$$$$

// next entry
(Q) Look up and state reported Kd for target 1 insG 3' of 9,insG 3' of 3 (mixed) RNA 1: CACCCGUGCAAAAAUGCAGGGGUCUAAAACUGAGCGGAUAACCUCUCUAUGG RNA 2: GGGAAUGGAUCCACAUCUACGAAUUCGUACCAUAGAGAGGUUAGUCCGCUGCACCGAGAUCGGAAGAGCACACGU
(A) 10.3
